In this section, each of the binders is paired with its reported CRF1R Emax.
assayedSystem: CRF1R
measurementDescription: cell-based or functional assay
Ends that are not written are not given here.
testReadout: CRF1R Emax (%)

{"binder": "IVLSLDVPIGLLQILIEIEKQEKEKQQAANNRLLLDTI-NH2 [SEQ ID NO 154]", "testReadout": "CRF1R Emax", "measureUnit": "%", "valueObserved": 7}
{"binder": "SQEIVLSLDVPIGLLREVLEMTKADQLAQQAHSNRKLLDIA-NH2 [SEQ ID NO 152]", "testReadout": "CRF1R Emax", "measureUnit": "%", "valueObserved": 4}
{"binder": "SQEPPISLDLPIHLLREVLEMTKADQLAQQAHSNRKLLDIA-NH2 [SEQ ID NO 94]", "testReadout": "CRF1R Emax", "measureUnit": "%", "valueObserved": 7.3}
{"binder": "ZGPPISIDLPWFLLRKMIEIEKQEKEKQQAANNRLLLDTI (C-terminal amide) [SEQ ID NO 187]", "testReadout": "CRF1R Emax", "measureUnit": "%", "valueObserved": 72}
{"binder": "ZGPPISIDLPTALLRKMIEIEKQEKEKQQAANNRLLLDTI (C-terminal amide) [SEQ ID NO 61]", "testReadout": "CRF1R Emax", "measureUnit": "%", "valueObserved": 12}
{"binder": "IVLSLDVPIGLLQILLEQTRARAAREQATTNARILARV-NH2 [SEQ ID NO 128]", "testReadout": "CRF1R Emax", "measureUnit": "%", "valueObserved": 8}
